Test system: P. falciparum W2
Assay: Malaria SYBR Green Fluorescence Assay, W2 strain
Format: cell-based, Plasmodium falciparum
Details: SYBR Green Assay
Exam item: assign True to entries whose W2 is below 80 ng/mL and False to entries at or above 80 ng/mL. Note that a value of exactly 80 ng/mL receives False.

Known results for molecules:
| givenSmiles | answerLabel |
| --- | --- |
| CCN(CC)CCNc1nc(-c2ccc3ccccc3c2)nc(C(Cl)(Cl)Cl)n1 | True |
| CS(=O)(=O)c1ccc(-c2nc(NCc3ccccn3)nc(C(Cl)(Cl)Cl)n2)cc1 | False |

hey, is W2 for Cc1ccccc1-c1nc(NCCN2CCCC2)nc(C(Cl)(Cl)Cl)n1 lower than 80 ng/mL or not?
True

hey, is W2 for COc1ccc(Nc2nc(N3CCN(C)CC3)nc(C(Cl)(Cl)Cl)n2)cn1 lower than 80 ng/mL or not?
False

hey, is W2 for COc1ccc(-c2nc(NCCc3cccnc3)nc(C(Cl)(Cl)Cl)n2)cc1 lower than 80 ng/mL or not?
False

hey, is W2 for COc1ccc(-c2nc(NCCc3ccncc3)nc(C(Cl)(Cl)Cl)n2)cc1 lower than 80 ng/mL or not?
True

hey, is W2 for CC(C)(C)c1ccc(-c2nc(NCCN3CCCC3)nc(C(Cl)(Cl)Cl)n2)cc1 lower than 80 ng/mL or not?
True

hey, is W2 for Clc1cc(Cl)cc(-c2nc(NCc3ccccn3)nc(C(Cl)(Cl)Cl)n2)c1 lower than 80 ng/mL or not?
True

hey, is W2 for NC1(CNc2nc(-c3ccccc3)nc(C(Cl)(Cl)Cl)n2)CC1 lower than 80 ng/mL or not?
False
